Molecular target: T1, Bdf1 bromodomain 2 (GST-tagged, WT) (Saccharomyces cerevisiae (strain ATCC …, UniProt P35817))
T1 chain: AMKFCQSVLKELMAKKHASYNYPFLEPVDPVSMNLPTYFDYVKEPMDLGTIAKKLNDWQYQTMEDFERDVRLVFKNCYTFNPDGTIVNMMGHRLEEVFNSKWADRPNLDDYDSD
Assay: histone peptide array probed with recombinant GST-bromodomain, signal normalised to myc peptide control
Non-standard residues stand in square brackets, D forms with d. No end group written: not given here. Arg(Me2a) = CN(C)C(=N)NCCC[C@H](N)C(=O)O; Lys(Me3) = C[N+](C)(C)CCCC[C@H](N)C(=O)O; Arg(Me2s) = CN=C(NC)NCCC[C@H](N)C(=O)O; pT = C[C@@H](OP(=O)(O)O)[C@H](N)C(=O)O; Lys(Me2) = CN(C)CCCC[C@H](N)C(=O)O; Me2s = symmetric dimethyl (on Arg)
Labelling: binding score reported below 0.006 becomes Criterion met; at or above becomes Criterion not met.

Here's an entry: AR[pT][Lys(Me2)]QTARKSTGGKAPRKQ . Is its binding score below 0.006?
Criterion not met

Here's an entry: A[Arg(Me2s)][pT]KQTARKSTGGKAPRKQ . Is its binding score below 0.006?
Criterion met

Here's an entry: ARTKQTARKSTGGKAPRKQ (A R T K Q T A Rme2a Kme2 pS T G G K A P R K Q) . Is its binding score below 0.006?
Criterion not met

Here's an entry: SGRGKGGKGLGKGGAKRHR (S G Rme2s G Kac G G Kac G L G K G G A K R H R) . Is its binding score below 0.006?
Criterion not met

Here's an entry: SGRGK(Ac)QGGKARAK(Ac)AKSRSS [H2a 1-19] . Is its binding score below 0.006?
Criterion not met

Here's an entry: ARTKQTARKSTGGKAPRKQ (A R T K Q T A R Kme1 pS T G G K A P R K Q) . Is its binding score below 0.006?
Criterion met

Here's an entry: SGRGKGGKGLGKGGAKRHR (S G Rme2s G Kac G G K G L G K G G A K R H R) . Is its binding score below 0.006?
Criterion not met

Here's an entry: ARTKQTARKSTGGKAPRKQ (A Rme2s T Kme1 Q T A Rme2a Kac S T G G K A P R K Q) . Is its binding score below 0.006?
Criterion met

Here's an entry: ARTKQTARKSTGGKAPRKQ (A R T K Q T A R K S pT G G Kac A P R K Q) . Is its binding score below 0.006?
Criterion not met

Here's an entry: A[Arg(Me2s)]TK(Ac)QTA[Arg(Me2a)][Lys(Me3)]STGGKAPRKQ . Is its binding score below 0.006?
Criterion not met

Here's an entry: AR(Me2s)TK(Ac)QTAR(Me2s)K(Me)STGGKAPRKQ . Is its binding score below 0.006?
Criterion met

Here's an entry: ARTKQTARKSTGGKAPRKQ (A R T K Q T A R Kme2 pS T G G K A P R K Q) . Is its binding score below 0.006?
Criterion met

Here's an entry: A[Arg(Me2a)]T[Lys(Me3)]QTAR[Lys(Me2)]STGGKAPRKQ . Is its binding score below 0.006?
Criterion met

Here's an entry: PDPAK(Ac)SAPAPKKGSK(Ac)KAVT [H2B 1-19] . Is its binding score below 0.006?
Criterion met
